Molecular target: human Aurora A (Homo sapiens)
Construct: Histidine tag (N); host or cells: Sf9 insect cells (baculovirus)
Sequence (O14965 1-403): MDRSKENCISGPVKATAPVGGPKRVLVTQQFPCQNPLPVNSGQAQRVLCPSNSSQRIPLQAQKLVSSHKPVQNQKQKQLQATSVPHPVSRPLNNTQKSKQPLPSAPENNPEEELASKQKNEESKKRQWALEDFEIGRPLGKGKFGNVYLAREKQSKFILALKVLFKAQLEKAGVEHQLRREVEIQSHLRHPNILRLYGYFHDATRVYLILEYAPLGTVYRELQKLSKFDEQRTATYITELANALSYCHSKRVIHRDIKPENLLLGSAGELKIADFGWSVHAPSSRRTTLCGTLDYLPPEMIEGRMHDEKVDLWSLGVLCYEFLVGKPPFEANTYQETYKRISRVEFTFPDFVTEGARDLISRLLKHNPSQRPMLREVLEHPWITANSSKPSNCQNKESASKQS
Assay: Aurora A kinase assay (DELFIA enzyme inhibition)
Assay type: biochemical
Settings: read-out: Aurora A IC50
pIC50: −log10 of the molar value.
pIC50 reference

# COMPOUND, RESULT
records = [
    ("NC(=O)c1nc(-c2c(F)cccc2F)oc1-c1ccc(OCCNCCO)cc1", "> 5.00"),
]

Consider the additional compound presented here.
Query: Check the records and state pIC50 for NC(=O)c1nc(-c2c(F)cccc2F)oc1Nc1ccc(N2CCOCC2)nc1
Response: > 5.00

====

Target: human Aurora A (Homo sapiens, UniProt O14965)
Construct: Histidine tag (N); host or cells: Sf9 insect cells (baculovirus)
Sequence (O14965 1-403): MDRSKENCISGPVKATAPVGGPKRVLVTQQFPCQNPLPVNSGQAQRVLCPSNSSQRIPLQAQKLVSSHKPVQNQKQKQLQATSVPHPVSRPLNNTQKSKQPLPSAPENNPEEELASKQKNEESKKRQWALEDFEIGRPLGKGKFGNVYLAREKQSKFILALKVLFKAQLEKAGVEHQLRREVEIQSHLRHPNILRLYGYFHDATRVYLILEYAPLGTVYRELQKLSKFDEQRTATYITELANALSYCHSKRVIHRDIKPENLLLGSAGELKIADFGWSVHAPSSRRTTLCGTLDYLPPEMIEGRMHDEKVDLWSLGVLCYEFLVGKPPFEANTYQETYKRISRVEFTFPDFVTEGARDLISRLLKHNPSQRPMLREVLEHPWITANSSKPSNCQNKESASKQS
Assay: Aurora A kinase assay (DELFIA enzyme inhibition)
Type: biochemical
Conditions: read-out: Aurora A IC50
Protocol: The protein was purified by one-step affinity chromatography using nickel-agarose […] Assay reactions are set up in a 25 uL final volume on a 96 well plate. […] The reaction is allowed to proceed for 30 minutes at room temperature before stopping with 100 μL Stop solution comprising of 100 mM EDTA, 1×BSA blocker in TBS (Perbio) and 0.05% Surfact-Amps20 (Perbio). […]
pIC50: −log10 of the molar value.
ATTRIBUTE MEASURED: pIC50

# CPD SMILES, pIC50
data = [
    ("NC(=O)c1nc(-c2c(F)cccc2F)oc1-c1ccc(COCCN2CCOCC2)cc1", "> 5.00"),
    ("NC(=O)c1nc(-c2c(F)cccc2F)oc1Nc1ccccc1", "> 5.00"),
    ("COc1ccc(-c2oc(Nc3ccccc3)nc2C(N)=O)cc1", "> 5.00"),
    ("COc1ccc(-c2nc(-c3ccccc3F)[nH]c2C(N)=O)cc1", "> 4.00"),
    ("COc1ccc(-c2nc(-c3c(Cl)cccc3Cl)[nH]c2C(N)=O)cc1", "> 4.00"),
    ("NC(=O)c1[nH]c(-c2c(F)cccc2F)nc1-c1ccccc1F", "> 5.00"),
]

Query: Check the records and state pIC50 for NCC1CCN(c2ccc(Nc3oc(-c4c(F)cccc4F)nc3C(N)=O)cc2)CC1
Response: > 5.00

Query: Check the records and state pIC50 for CN(CCOc1ccc(-c2oc(-c3c(F)cccc3F)nc2C(N)=O)cc1)Cc1ccccc1
Response: > 4.00

Query: Check the records and state pIC50 for CS(=O)(=O)c1ccc(F)c(Nc2oc(-c3c(F)cccc3F)nc2C(N)=O)c1
Response: > 4.00

====

IC50 reference
Target: human FLT4 (Homo sapiens, UniProt P35916)
Construct: a construct expressing the human FLT4 (789-1207) with an amino terminal GST tag; host or cells: Sf9 insect cells (baculovirus)
Sequence (P35916 789-1207): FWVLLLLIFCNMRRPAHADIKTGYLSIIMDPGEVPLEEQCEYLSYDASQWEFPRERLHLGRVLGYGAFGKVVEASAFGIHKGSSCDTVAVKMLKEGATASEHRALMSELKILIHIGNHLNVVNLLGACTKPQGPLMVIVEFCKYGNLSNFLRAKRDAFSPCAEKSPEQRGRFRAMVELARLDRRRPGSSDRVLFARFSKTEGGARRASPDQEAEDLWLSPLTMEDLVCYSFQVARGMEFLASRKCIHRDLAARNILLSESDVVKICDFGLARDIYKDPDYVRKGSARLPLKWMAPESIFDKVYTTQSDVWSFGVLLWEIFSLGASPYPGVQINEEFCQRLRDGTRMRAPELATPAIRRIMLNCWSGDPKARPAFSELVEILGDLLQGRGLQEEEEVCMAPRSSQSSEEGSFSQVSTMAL
Experiment: FLT4 kinase assay (DELFIA enzyme inhibition)
Assay type: biochemical
Details: read-out: FLT4 IC50

# CPD SMILES, TARGET UNDER TEST, RESULT
measured = [
    ("NC(=O)c1nc(-c2c(F)cccc2F)oc1-c1ccc(N2CCOCC2)nc1", "human FLT4 (Homo sapiens, UniProt P35916)", "< 100 µM"),
    ("COc1cccc(Nc2oc(-c3c(F)cccc3F)nc2C(N)=O)c1", "human FLT4 (Homo sapiens, UniProt P35916)", "< 100 µM"),
    ("NC(=O)c1nc(-c2c(F)cccc2F)oc1-c1ccc(CN2CCNCC2)cc1", "human FLT4 (Homo sapiens, UniProt P35916)", "< 10 µM"),
    ("COc1ccc(-c2nc(-c3cn(C)c4ccccc34)[nH]c2C(N)=O)cc1", "human FLT4 (Homo sapiens, UniProt P35916)", "< 100 µM"),
    ("NC(=O)c1nc(-c2c(F)cccc2F)oc1-c1ccc(OCCN2CCC[C@@H]2CO)cc1", "human FLT4 (Homo sapiens, UniProt P35916)", "< 10 µM"),
]

Query: Check the records and state IC50 for CNCCCNC(=O)c1ccc(Nc2oc(-c3c(F)cccc3F)nc2C(N)=O)cc1
Response: < 10 µM

Query: Check the records and state IC50 for NC(=O)c1nc(-c2c(F)cccc2F)oc1-c1cccc(C(=O)N2CCOCC2)c1
Response: < 10 µM

Query: Check the records and state IC50 for NC(=O)c1nc(-c2c(F)cccc2F)oc1-c1ccc(CNC(=O)c2cccs2)cc1
Response: < 10 µM

Query: Check the records and state IC50 for COc1ccc(-c2oc(Nc3ccccc3C)nc2C(N)=O)cc1
Response: < 10 µM

====

Biological target: human FLT3 (Homo sapiens)
Construct: a construct expressing the human FLT3 (564-993) with an amino terminal GST tag
Sequence (P36888 564-993): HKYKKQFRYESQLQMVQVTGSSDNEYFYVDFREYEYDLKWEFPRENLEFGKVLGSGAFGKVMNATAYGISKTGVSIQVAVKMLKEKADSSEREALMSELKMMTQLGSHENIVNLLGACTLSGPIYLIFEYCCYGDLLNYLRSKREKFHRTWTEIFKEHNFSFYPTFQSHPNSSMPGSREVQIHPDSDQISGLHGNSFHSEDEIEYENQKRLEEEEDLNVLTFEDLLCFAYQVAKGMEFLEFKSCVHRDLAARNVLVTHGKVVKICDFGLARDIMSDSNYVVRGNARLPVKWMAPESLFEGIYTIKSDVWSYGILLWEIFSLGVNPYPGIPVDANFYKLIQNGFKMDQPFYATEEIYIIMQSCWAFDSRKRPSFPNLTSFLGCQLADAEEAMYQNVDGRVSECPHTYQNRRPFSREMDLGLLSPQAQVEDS
Experiment: FLT3 kinase assay (DELFIA enzyme inhibition)
ATTRIBUTE MEASURED: IC50

Completed entries (count: 3):
# CPD SMILES, IC50
records = [
    ("COc1ccc(-c2oc(-c3cccc(C(F)(F)F)c3F)nc2C(N)=O)cc1", "< 100 µM"),
    ("CC(=O)N1CCN(c2ccc(Nc3oc(-c4c(F)cccc4F)nc3C(N)=O)cc2)CC1", "< 10 µM"),
    ("NC(=O)c1nc(-c2c(F)cccc2F)oc1-c1ccc(OCCN2CCNC(=O)C2)cc1", "< 10 µM"),
]

Consider the additional compound presented here.
Query: Check the records and state IC50 for NC(=O)c1nc(-c2ccccc2F)oc1-c1ccc(OCCN2CCOCC2)cc1
Response: < 10 µM

====

pIC50 reference
Biological target: human Aurora A (Homo sapiens, UniProt O14965)
Construct: Histidine tag (N); host or cells: Sf9 insect cells (baculovirus)
Sequence (O14965 1-403): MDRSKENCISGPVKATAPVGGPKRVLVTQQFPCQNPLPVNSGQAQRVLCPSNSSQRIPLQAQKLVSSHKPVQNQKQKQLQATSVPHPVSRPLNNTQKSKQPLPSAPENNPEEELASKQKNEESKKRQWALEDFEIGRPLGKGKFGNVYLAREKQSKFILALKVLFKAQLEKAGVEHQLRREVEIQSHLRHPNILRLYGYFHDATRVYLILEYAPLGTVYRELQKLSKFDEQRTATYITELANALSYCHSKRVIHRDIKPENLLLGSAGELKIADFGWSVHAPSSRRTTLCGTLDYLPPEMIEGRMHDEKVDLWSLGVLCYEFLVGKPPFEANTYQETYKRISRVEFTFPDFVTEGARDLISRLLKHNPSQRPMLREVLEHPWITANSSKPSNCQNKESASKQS
Assay: Aurora A kinase assay (DELFIA enzyme inhibition)
Assay type: biochemical
Settings: read-out: Aurora A IC50
pIC50: −log10 of the molar value.

Completed entries (count: 4):
# CPD SMILES, TARGET UNDER TEST, pIC50
records = [
    ("NC(=O)c1nc(-c2c(F)cccc2F)oc1Nc1ccc(N2CCNCC2)nc1", "human Aurora A (Homo sapiens, UniProt O14965)", "> 5.00"),
    ("NC(=O)c1nc(-c2c(F)cccc2F)oc1Nc1ccc(OC2CCNCC2)cc1", "human Aurora A (Homo sapiens, UniProt O14965)", "> 5.00"),
    ("COc1ccc(-c2nc(-c3c[nH]c4ccccc34)[nH]c2C(N)=O)cc1", "human Aurora A (Homo sapiens, UniProt O14965)", "> 4.00"),
    ("COc1ccc(-c2oc(-c3cn[nH]c3)nc2C(N)=O)cc1", "human Aurora A (Homo sapiens, UniProt O14965)", "> 5.00"),
]

Consider the additional compound presented here.
Query: Check the records and state pIC50 for COc1ccc(-c2nc(-c3c(F)cccc3F)[nH]c2C(N)=O)cc1
Response: > 4.00
